We begin with a simple list: items and their reported Kd.
Target: His peptide-tagged soluble cynoADAM9 (cynoADAM9-His) (cynomolgus monkey)
Method summary: SPR (BIACORE), antibody captured, cynoADAM9-His in flow
Measured attribute: Kd (nM)

binder="hMAB-A (2C.2) (antibody, human IgG1, kappa, V domains shown) VH: EVQLVESGGGLVKPGGSLRLSCAASGFTFSSYWMHWVRQAPGKGLEWVGEIIPIFGHTNYNEKFKSRFTISLDNSKNTLYLQMGSLRAEDTAVYYCARGGYYYYPRFGWLDYWGQGTTVTVSS VL: DIVMTQSPDSLAVSLGERATISCKASQSVDYSGDSYMNWYQQKPGQPPKLLIYAASDLESGIPARFSGSGSGTDFTLTISSLEPEDFATYYCQQSHEDPFTFGQGTKLEIKR" comparison_operator=< assay_value=0.3
binder="hMAB-A (2D.2) (antibody, V domains shown) VH: EVQLVESGGGLVKPGGSLRLSCAASGFTFSSYWMHWVRQAPGKGLEWVGEIIPIFGHTNYNEKFKSRFTISLDNSKNTLYLQMGSLRAEDTAVYYCARGGYYYYTGKGVLDYWGQGTTVTVSS VL: DIVMTQSPDSLAVSLGERATISCKASQSVDYSGDSYMNWYQQKPGQPPKLLIYAASDLESGIPARFSGSGSGTDFTLTISSLEPEDFATYYCQQSHEDPFTFGQGTKLEIK" comparison_operator== assay_value=0.7
binder="hMAB-A (2.2) (antibody, human IgG1, kappa, V domains shown) VH: EVQLVESGGGLVKPGGSLRLSCAASGFTFSSYWMHWVRQAPGKGLEWVGEIIPIFGHTNYNEKFKSRFTISLDNSKNTLYLQMGSLRAEDTAVYYCARGGYYYYGSRDYFDYWGQGTTVTVSS VL: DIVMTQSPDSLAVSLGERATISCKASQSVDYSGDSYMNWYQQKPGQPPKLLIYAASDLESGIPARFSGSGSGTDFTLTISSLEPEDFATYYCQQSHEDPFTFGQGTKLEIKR" comparison_operator== assay_value=110
binder="hMAB-A (2B.2) (antibody, V domains shown) VH: EVQLVESGGGLVKPGGSLRLSCAASGFTFSSYWMHWVRQAPGKGLEWVGEIIPIFGHTNYNEKFKSRFTISLDNSKNTLYLQMGSLRAEDTAVYYCARGGYYYYIGKGVLDYWGQGTTVTVSS VL: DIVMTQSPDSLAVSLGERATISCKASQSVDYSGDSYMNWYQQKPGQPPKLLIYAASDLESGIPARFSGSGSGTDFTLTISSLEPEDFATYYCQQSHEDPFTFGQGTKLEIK" comparison_operator== assay_value=0.2
